Test system: hNSC
ASSAY DETAILS: MMP assay in human neural stem cells (hNSC)
Assay type: cell-based
TEST PARAMETERS: Homo sapiens, Neural stem cell, 1 h, read-out: hNSC IC50 (MMP)
pIC50: −log10 of the molar value.
Returns Satisfied if the recorded pIC50 is greater than or equal to 5, and Not satisfied otherwise.

N#CC(c1ccc(Cl)cc1)c1c(Cl)cc(-n2ncc(=O)[nH]c2=O)cc1Cl (stereo not drawn) [Diclazuril, reference compound] : Not satisfied

Data request: Hi team, for CCCCCC[C@H]1C(=O)O[C@H](C)[C@H](NC(=O)c2cccc(NC=O)c2O)C(=O)O[C@@H](C)[C@@H]1OC(=O)CC(C)C [Antimycin A, reference compound] , is the recorded pIC50 at or above 5?
Data returned: Satisfied

Data request: Form field: pIC50 at least 5? Entry: O=C(Nc1ccc([N+](=O)[O-])cc1Cl)c1cc(Cl)ccc1O [Niclosamide, reference compound]
Data returned: Satisfied
